Molecular target: NEP (neutral endopeptidase) (Homo sapiens, UniProt P08473)
Construct: purchased R&D Systems, Minneapolis, Minn; 1182-ZN
Sequence (P08473 52-750 limits assumed): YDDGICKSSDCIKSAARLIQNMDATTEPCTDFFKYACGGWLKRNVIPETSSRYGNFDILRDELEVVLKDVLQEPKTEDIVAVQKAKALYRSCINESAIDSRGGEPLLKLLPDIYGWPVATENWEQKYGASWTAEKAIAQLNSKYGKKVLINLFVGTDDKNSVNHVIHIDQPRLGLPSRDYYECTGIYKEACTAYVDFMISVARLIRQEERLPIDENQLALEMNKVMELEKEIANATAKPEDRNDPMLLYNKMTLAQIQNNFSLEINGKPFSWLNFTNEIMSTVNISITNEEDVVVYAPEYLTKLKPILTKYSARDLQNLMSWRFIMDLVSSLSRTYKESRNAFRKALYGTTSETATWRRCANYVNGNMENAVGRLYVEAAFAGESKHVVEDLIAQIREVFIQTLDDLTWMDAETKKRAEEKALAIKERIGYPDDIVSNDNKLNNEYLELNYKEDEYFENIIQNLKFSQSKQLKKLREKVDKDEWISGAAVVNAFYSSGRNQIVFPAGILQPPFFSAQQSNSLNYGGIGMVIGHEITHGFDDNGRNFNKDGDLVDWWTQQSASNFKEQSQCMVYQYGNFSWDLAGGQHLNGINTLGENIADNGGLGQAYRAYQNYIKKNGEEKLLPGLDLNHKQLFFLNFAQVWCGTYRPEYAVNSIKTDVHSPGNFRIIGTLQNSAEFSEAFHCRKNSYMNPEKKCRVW
Test: hNEP resistance assay (digestion by neutral endopeptidase)
Type: in vitro ADME
Conditions: human, isolated enzyme neprilysin, pH 7.4
Bridge positions count the residues as written; N and C are the ends. Square brackets hold non-standard residues; d marks the D form. Peptide text beside a SMILES is read from it. * marks the point of attachment. X1 = N=C(N)NCCC[C@H]1C(=O)N[C@@H](C(N)=O)CN1*; dNle = CCCC[C@@H](N)C(=O)O; Heptanoyl = CCCCCCC(=O)*
READOUT LABEL: remaining at 1 h, 50 µM (%)

CCCCCCC(=O)N[C@H]1CSSC[C@@H](C(=O)N[C@@H](Cc2ccc(O)cc2)C(=O)N2C[C@H](C(N)=O)NC(=O)[C@@H]2CCCNC(=N)N)NC(=O)[C@H](CO)NC(=O)[C@H]([C@@H](C)CC)NC(=O)[C@H](CCCNC(=N)N)NC(=O)[C@H](CC(=O)O)NC(=O)[C@@H](CCCC)NC(=O)[C@H](CCCNC(=N)N)NC(=O)CNC(=O)CNC(=O)[C@H](Cc2ccccc2)NC(=O)[C@H](Cc2c[nH]cn2)NC1=O [1-131] (Heptanoyl-CHFGGR[dNle]DRISCY-X1; disulfide 1-12) :: 87

* * *

Biological target: NEP (neutral endopeptidase) (Homo sapiens, UniProt P08473)
Construct: purchased R&D Systems, Minneapolis, Minn; 1182-ZN
Test: hNEP resistance assay (digestion by neutral endopeptidase)
Assay type: in vitro ADME
Details: human, isolated enzyme neprilysin, pH 7.4
Bridge positions count the residues as written; N and C are the ends. Square brackets hold non-standard residues; d marks the D form. Peptide text beside a SMILES is read from it. * marks the point of attachment. Piperazin2one(3S-Bu,6R-CO) = CCCC[C@@H]1NC[C@H](C(=O)*)NC1=O; X2 = N=C(N)NCCC[C@@H]1C(=O)N[C@@H](C(N)=O)CN1*; X1 = N=C(N)NCCC[C@H]1C(=O)N[C@@H](C(N)=O)CN1*; dNle = CCCC[C@@H](N)C(=O)O; Heptanoyl = CCCCCCC(=O)*; Nle = CCCC[C@H](N)C(=O)O
# yes = remaining at 2 h, 50 µM below 80% (exclusive); no = remaining at 2 h, 50 µM at/above 80%

CCCC[C@@H]1NC[C@H](C(=O)N[C@H]2CSSC[C@@H](C(=O)N[C@@H](Cc3ccc(O)cc3)C(=O)N3C[C@H](C(N)=O)NC(=O)[C@@H]3CCCNC(=N)N)NC(=O)[C@H](CO)NC(=O)[C@H]([C@@H](C)CC)NC(=O)[C@H](CCCNC(=N)N)NC(=O)[C@@H](CC(=O)O)NC(=O)[C@H](CCCC)NC(=O)[C@H](CCCNC(=N)N)NC(=O)CNC(=O)CNC(=O)[C@H](Cc3ccccc3)NC(=O)[C@H](Cc3c[nH]cn3)NC2=O)NC1=O [1-44] ({Piperazin2one(3S-Bu,6R-CO)}-CHFGGR[Nle][dD]RISCY-X1; disulfide 1-12) :: no
CCCC[C@@H]1NC[C@H](C(=O)N[C@H]2CSSC[C@@H](C(=O)N[C@@H](Cc3ccc(O)cc3)C(=O)N3C[C@H](C(N)=O)NC(=O)[C@H]3CCCNC(=N)N)NC(=O)[C@H](CO)NC(=O)[C@H]([C@@H](C)CC)NC(=O)[C@@H](CCCNC(=N)N)NC(=O)[C@H](CC(=O)O)NC(=O)[C@H](CCCC)NC(=O)[C@@H](CCCNC(=N)N)NC(=O)CNC(=O)CNC(=O)[C@H](Cc3ccccc3)NC(=O)[C@H](Cc3c[nH]cn3)NC2=O)NC1=O [1-118] ({Piperazin2one(3S-Bu,6R-CO)}-CHFGG[dR][Nle]D[dR]ISCY-X2; disulfide 1-12) :: no
CCCCCCC(=O)N[C@H]1CSSC[C@@H](C(=O)N[C@@H](Cc2ccc(O)cc2)C(=O)N2C[C@H](C(N)=O)NC(=O)[C@@H]2CCCNC(=N)N)NC(=O)[C@H](CO)NC(=O)[C@H]([C@@H](C)CC)NC(=O)[C@H](CCCNC(=N)N)NC(=O)[C@H](CC(=O)O)NC(=O)[C@H](CCCC)NC(=O)[C@H](CCCNC(=N)N)NC(=O)CNC(=O)CNC(=O)[C@H](Cc2ccccc2)NC(=O)[C@H](Cc2c[nH]cn2)NC1=O [1-63] (Heptanoyl-CHFGGR[Nle]DRISCY-X1; disulfide 1-12) :: yes
CCCC[C@@H]1NC[C@H](C(=O)N[C@H]2CSSC[C@@H](C(=O)N[C@@H](Cc3ccc(O)cc3)C(=O)N3C[C@H](C(N)=O)NC(=O)[C@@H]3CCCNC(=N)N)NC(=O)[C@H](CO)NC(=O)[C@H]([C@@H](C)CC)NC(=O)[C@H](CCCNC(=N)N)NC(=O)[C@H](CC(=O)O)NC(=O)[C@@H](CCCC)NC(=O)[C@H](CCCNC(=N)N)NC(=O)CNC(=O)CNC(=O)[C@H](Cc3ccccc3)NC(=O)[C@H](Cc3c[nH]cn3)NC2=O)NC1=O [1-43] ({Piperazin2one(3S-Bu,6R-CO)}-CHFGGR[dNle]DRISCY-X1; disulfide 1-12) :: no
CCCCCCC(=O)N[C@H]1CSSC[C@@H](C(=O)N[C@@H](Cc2ccc(O)cc2)C(=O)N2C[C@H](C(N)=O)NC(=O)[C@@H]2CCCNC(=N)N)NC(=O)[C@H](CO)NC(=O)[C@H]([C@@H](C)CC)NC(=O)[C@H](CCCNC(=N)N)NC(=O)[C@H](CC(=O)O)NC(=O)[C@@H](CCCC)NC(=O)[C@H](CCCNC(=N)N)NC(=O)CNC(=O)CNC(=O)[C@H](Cc2ccccc2)NC(=O)[C@H](Cc2c[nH]cn2)NC1=O [1-131] (Heptanoyl-CHFGGR[dNle]DRISCY-X1; disulfide 1-12) :: yes

* * *

Target: NEP (neutral endopeptidase) (Homo sapiens, UniProt P08473)
Construct: purchased R&D Systems, Minneapolis, Minn; 1182-ZN
Experiment: hNEP resistance assay (digestion by neutral endopeptidase)
Type: in vitro ADME
Conditions: human recombinant NEP (neutral endopeptidase), pH 7.4; incubation with human recombinant NEP at 37° C., 1 h; read-out: hNEP % of Starting Material 1 h
Bridge positions count the residues as written; N and C are the ends. Square brackets hold non-standard residues; d marks the D form. Peptide text beside a SMILES is read from it. * marks the point of attachment. Piperazin2one(3S-Bu,6R-CO) = CCCC[C@@H]1NC[C@H](C(=O)*)NC1=O; X2 = N=C(N)NCCC[C@@H]1C(=O)N[C@@H](C(N)=O)CN1*; dNle = CCCC[C@@H](N)C(=O)O
READOUT LABEL: remaining at 1 h, 50 µM (%)

CCCC[C@@H]1NC[C@H](C(=O)N[C@H]2CSSC[C@@H](C(=O)N[C@@H](Cc3ccc(O)cc3)C(=O)N3C[C@H](C(N)=O)NC(=O)[C@H]3CCCNC(=N)N)NC(=O)[C@H](CO)NC(=O)[C@H]([C@@H](C)CC)NC(=O)[C@H](CCCNC(=N)N)NC(=O)[C@H](CC(=O)O)NC(=O)[C@@H](CCCC)NC(=O)[C@H](CCCNC(=N)N)NC(=O)CNC(=O)[C@@H](C)NC(=O)[C@H](Cc3ccccc3)NC(=O)[C@H](Cc3c[nH]cn3)NC2=O)NC1=O [1-133] ({Piperazin2one(3S-Bu,6R-CO)}-CHF[dA]GR[dNle]DRISCY-X2; disulfide 1-12) :: 96

* * *

Reported Vd values for a set of molecules
Conditions: rat, in vivo, iv, 2 mg/kg
Bridge positions count the residues as written; N and C are the ends. Square brackets hold non-standard residues; d marks the D form. Peptide text beside a SMILES is read from it. * marks the point of attachment. Piperazin2one(3S-Bu,6R-CO) = CCCC[C@@H]1NC[C@H](C(=O)*)NC1=O; X1 = N=C(N)NCCC[C@H]1C(=O)N[C@@H](C(N)=O)CN1*; X3 = CC(C)C[C@@H]1NC[C@H](C(=O)*)NC1=O; Nle = CCCC[C@H](N)C(=O)O; Orn = NCCC[C@H](N)C(=O)O
READOUT LABEL: Vd (L/kg)

CCCC[C@@H]1NC[C@H](C(=O)N[C@H]2CSSC[C@@H](C(=O)N[C@@H](Cc3ccc(O)cc3)C(=O)N3C[C@H](C(N)=O)NC(=O)[C@@H]3CCCNC(=N)N)NC(=O)[C@H](CO)NC(=O)[C@H]([C@@H](C)CC)NC(=O)[C@H](CCCN)NC(=O)[C@H](CC(=O)O)NC(=O)[C@H](CCCC)NC(=O)[C@H](CCCNC(=N)N)NC(=O)CNC(=O)CNC(=O)[C@H](Cc3ccccc3)NC(=O)[C@H](Cc3c[nH]cn3)NC2=O)NC1=O [1-55] ({Piperazin2one(3S-Bu,6R-CO)}-CHFGGR[Nle]D[Orn]ISCY-X1; disulfide 1-12) :: 0.3
CCCC[C@@H]1NC(=O)[C@H](CCCNC(=N)N)NC(=O)CNC(=O)CNC(=O)[C@H](Cc2ccccc2)NC(=O)[C@H](Cc2c[nH]cn2)NC(=O)[C@@H](NC(=O)[C@H]2CN[C@@H](CC(C)C)C(=O)N2)CSSC[C@@H](C(=O)N[C@@H](Cc2ccc(O)cc2)C(=O)N2C[C@H](C(N)=O)NC(=O)[C@@H]2CCCNC(=N)N)NC(=O)[C@H](CO)NC(=O)[C@H]([C@@H](C)CC)NC(=O)[C@H](CCCNC(=N)N)NC(=O)[C@H](CC(=O)O)NC1=O [1-51] (X3-CHFGGR[Nle]DRISCY-X1; disulfide 1-12) :: 1
CCCC[C@@H]1NC[C@H](C(=O)N[C@H]2CSSC[C@@H](C(=O)N[C@@H](Cc3ccc(O)cc3)C(=O)N3C[C@H](C(N)=O)NC(=O)[C@@H]3CCCNC(=N)N)NC(=O)[C@H](CO)NC(=O)[C@H]([C@@H](C)CC)NC(=O)[C@H](CCCNC(=N)N)NC(=O)[C@H](CC(=O)O)NC(=O)[C@H](CCCC)NC(=O)[C@H](CCCNC(=N)N)NC(=O)CNC(=O)CNC(=O)[C@H](Cc3ccccc3)NC(=O)[C@@H](Cc3c[nH]cn3)NC2=O)NC1=O [1-28] ({Piperazin2one(3S-Bu,6R-CO)}-C[dH]FGGR[Nle]DRISCY-X1; disulfide 1-12) :: 1.1
